target: NMDAR2B (Homo sapiens); construct: expressed in transfected cells; host or cells: HEK cells (membrane extract); experiment: NMDAR agonist assay, [3H]MK-801 binding, NMDAR2B expressing HEK cell membranes; assay type: biochemical; conditions: 50 μM glutamate, read-out: NMDAR2B log EC50 (converted)
Sequence (Q13224 27-1484, species assumed, other chains not shown): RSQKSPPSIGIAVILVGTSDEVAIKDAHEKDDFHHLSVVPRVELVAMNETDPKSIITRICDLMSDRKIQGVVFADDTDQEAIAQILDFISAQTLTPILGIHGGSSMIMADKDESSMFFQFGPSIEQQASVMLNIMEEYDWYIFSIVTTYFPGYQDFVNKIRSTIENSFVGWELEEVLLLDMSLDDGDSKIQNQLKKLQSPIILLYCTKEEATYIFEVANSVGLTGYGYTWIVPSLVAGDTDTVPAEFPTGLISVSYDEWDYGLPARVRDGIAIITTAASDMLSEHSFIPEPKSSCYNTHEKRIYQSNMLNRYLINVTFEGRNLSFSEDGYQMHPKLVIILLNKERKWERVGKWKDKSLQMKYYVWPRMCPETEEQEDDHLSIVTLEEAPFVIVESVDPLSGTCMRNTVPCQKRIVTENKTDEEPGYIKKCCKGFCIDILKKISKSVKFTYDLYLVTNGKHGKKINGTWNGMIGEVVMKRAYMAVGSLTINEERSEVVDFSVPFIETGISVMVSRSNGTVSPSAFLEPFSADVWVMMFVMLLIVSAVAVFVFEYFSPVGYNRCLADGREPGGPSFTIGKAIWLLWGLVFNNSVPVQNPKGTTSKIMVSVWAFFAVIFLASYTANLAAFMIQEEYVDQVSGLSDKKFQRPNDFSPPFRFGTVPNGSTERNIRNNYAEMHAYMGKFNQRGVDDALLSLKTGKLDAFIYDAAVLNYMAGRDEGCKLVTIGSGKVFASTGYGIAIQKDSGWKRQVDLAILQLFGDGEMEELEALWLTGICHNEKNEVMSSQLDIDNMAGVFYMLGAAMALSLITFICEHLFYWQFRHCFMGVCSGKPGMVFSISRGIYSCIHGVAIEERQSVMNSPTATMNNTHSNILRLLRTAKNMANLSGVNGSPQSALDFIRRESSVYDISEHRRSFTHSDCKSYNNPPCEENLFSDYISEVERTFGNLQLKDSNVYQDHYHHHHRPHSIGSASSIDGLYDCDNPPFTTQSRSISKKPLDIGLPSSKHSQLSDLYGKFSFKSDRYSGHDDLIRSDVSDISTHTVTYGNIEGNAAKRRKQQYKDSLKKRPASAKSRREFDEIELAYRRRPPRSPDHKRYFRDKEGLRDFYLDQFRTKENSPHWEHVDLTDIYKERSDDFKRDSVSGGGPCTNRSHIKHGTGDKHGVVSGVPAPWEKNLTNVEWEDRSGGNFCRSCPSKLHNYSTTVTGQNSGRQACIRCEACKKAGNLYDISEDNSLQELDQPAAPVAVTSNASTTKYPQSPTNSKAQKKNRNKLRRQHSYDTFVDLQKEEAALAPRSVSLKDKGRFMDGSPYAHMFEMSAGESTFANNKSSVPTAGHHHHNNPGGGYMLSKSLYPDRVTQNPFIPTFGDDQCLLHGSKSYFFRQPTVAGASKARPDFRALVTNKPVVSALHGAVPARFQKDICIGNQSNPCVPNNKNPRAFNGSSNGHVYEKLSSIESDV
resultType: EC50

Check out these entries, answers already filled in.
molecule	EC50
CC1C(O)C(=O)N(C)C12CN(Cc1ccccc1)C2=O (single isomer, unassigned)	> 0.1 µM
COc1ccc(CN2CC3(CCNC(=S)C3)C2=O)cc1 (single isomer, unassigned)	> 0.1 µM
CN1CC2(CCNC(=O)C2)C1=O (single isomer, unassigned)	> 0.1 µM

Recorded result, COc1ccc(CN2CC3(CCNC(=S)C3)C2=S)cc1 (single isomer, unassigned) , EC50: > 0.1 µM

Documented EC50 of CCN1CCC2(CC1=O)CN(Cc1ccc(OC)cc1)C2=O (single isomer, unassigned) : > 0.1 µM

According to the records, this molecule CC1CC(=O)N(c2ccc(F)cc2)C12CN(CC(N)=O)C2=O (single isomer, unassigned) displays EC50 of > 0.1 µM

Briefly, EC50 measured for C[C@@H](O)[C@@H](C(=O)NCc1ccccc1)N1CC2(CCNC(=O)C2)C1=O (single isomer, unassigned) : > 0.1 µM

So for CC1CC(=O)N(c2ccc(F)cc2)C12CN([C@H](C(N)=O)[C@@H](C)O)C2=O (single isomer, unassigned) , the logged EC50 turned out to be > 0.1 µM
